Listing of recorded number in parentheses after KD (fold against SYNAGIS = 1) by entry.
target.desc: T1, RSV F glycoprotein (NUF4) (respiratory syncytial virus)
T1 chain 1: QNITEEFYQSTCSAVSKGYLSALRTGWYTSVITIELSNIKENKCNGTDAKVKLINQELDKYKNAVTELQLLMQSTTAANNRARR
T1 chain 2: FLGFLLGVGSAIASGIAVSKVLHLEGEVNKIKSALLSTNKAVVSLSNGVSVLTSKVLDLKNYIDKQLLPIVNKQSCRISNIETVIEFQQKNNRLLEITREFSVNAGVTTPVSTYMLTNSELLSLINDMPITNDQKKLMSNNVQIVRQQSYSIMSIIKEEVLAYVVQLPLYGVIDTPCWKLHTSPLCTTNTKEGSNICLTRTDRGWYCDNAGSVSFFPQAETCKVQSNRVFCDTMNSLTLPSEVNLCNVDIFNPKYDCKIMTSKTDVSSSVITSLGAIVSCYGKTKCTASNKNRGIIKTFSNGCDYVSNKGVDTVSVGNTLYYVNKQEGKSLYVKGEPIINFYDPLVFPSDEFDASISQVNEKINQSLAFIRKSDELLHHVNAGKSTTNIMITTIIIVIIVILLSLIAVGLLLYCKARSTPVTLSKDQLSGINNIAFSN
protocol: BIAcore, mAb vs NUF4 (2:1)
Give your result in fold as a bare value.

{"binder": "P12f2 (monoclonal antibody) (antibody, V domains shown, mAb with framework and constant regions of SYNAGIS; also called Pf12) VH: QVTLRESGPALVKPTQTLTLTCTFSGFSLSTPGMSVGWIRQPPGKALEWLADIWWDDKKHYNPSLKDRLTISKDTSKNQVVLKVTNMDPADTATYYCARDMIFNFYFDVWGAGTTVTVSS VL: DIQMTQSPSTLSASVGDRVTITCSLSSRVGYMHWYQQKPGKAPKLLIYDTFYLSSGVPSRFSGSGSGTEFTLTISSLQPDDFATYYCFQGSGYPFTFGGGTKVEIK", "units.text": "fold", "result.value": 371}

Request: Looking for the measured number in parentheses after KD (fold against SYNAGIS = 1) of A8c7 (monoclonal antibody) (antibody, V domains shown, mAb with framework and constant regions of SYNAGIS) VH: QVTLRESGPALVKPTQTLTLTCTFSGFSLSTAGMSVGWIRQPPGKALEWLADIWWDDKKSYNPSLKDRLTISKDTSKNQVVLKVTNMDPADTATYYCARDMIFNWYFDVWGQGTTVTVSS VL: DIQMTQSPSTLSASVGDRVTITCSASSRVGYMHWYQQKPGKAPKLLIYDTRYQSSGVPSRFSGSGSGTEFTLTISSLQPDDFATYYCFQGSGYPFTFGGGTKLEIK , can you help?
Response: 118

Request: Param item = A12a6 (monoclonal antibody) (antibody, V domains shown, mAb with framework and constant regions of SYNAGIS) VH: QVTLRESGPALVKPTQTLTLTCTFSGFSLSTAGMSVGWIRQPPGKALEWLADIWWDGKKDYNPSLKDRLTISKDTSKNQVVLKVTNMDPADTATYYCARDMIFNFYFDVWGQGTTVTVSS VL: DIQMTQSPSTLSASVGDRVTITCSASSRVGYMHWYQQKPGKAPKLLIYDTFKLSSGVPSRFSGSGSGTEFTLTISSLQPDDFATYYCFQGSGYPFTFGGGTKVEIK ; retrieve measured number in parentheses after KD (fold against SYNAGIS = 1).
Response: 167
